test system: COR-L23; assay: relative viability (nuclei count vs DMSO), 5 days (fraction); higher = more cells survive; details: first compound 0.253 µM

- Compound: "O=c1[nH]c2ccccc2n1C1CCN(CCCC(c2ccc(F)cc2)c2ccc(F)cc2)CC1 [Pimozide] + COc1cccc2cc(-c3nc([C@H]4CC[C@H](C(=O)O)CC4)n4ncnc(N)c34)[nH]c12 [OSI-027] (partner 0.5 µM)"
  relative viability: 0.75
- Compound: "O=c1[nH]c2ccccc2n1C1CCN(CCCC(c2ccc(F)cc2)c2ccc(F)cc2)CC1 [Pimozide] + CC(=O)Nc1cccc(-n2c(=O)n(C3CC3)c(=O)c3c(Nc4ccc(I)cc4F)n(C)c(=O)c(C)c32)c1 [Trametinib] (partner 0.02 µM)"
  relative viability: 0.596

---

test system: PC-14; assay: relative viability (nuclei count vs DMSO), 5 days (fraction); higher = more cells survive; details: first compound 0.5 µM
Listed next: entries and their corresponding relative viability.
Attribute measured: relative viability

- Molecule: "COc1cc2nccc(Oc3ccc(NC(=O)Nc4cc(C)on4)c(Cl)c3)c2cc1OC [Tivozanib] + COc1cccc2cc(-c3nc([C@H]4CC[C@H](C(=O)O)CC4)n4ncnc(N)c34)[nH]c12 [OSI-027] (partner 0.5 µM)"
  Result: 0.664
- Molecule: "COc1cc2nccc(Oc3ccc(NC(=O)Nc4cc(C)on4)c(Cl)c3)c2cc1OC [Tivozanib] + Cc1nc(NC(=O)N2CCC[C@H]2C(N)=O)sc1-c1ccnc(C(C)(C)C(F)(F)F)c1 [Alpelisib] (partner 2 µM)"
  Result: 0.873
- Molecule: "COc1cc2nccc(Oc3ccc(NC(=O)Nc4cc(C)on4)c(Cl)c3)c2cc1OC [Tivozanib] + NC(=O)Nc1cc(-c2cccc(F)c2)sc1C(=O)N[C@H]1CCCNC1 [AZD7762] (partner 0.2 µM)"
  Result: 0.375
- Molecule: "Nc1ccn([C@@H]2O[C@H](CO)[C@@H](O)[C@@H]2O)c(=O)n1 [Cytarabine] + CC(=O)c1c(C)c2cnc(Nc3ccc(N4CCNCC4)cn3)nc2n(C2CCCC2)c1=O [Palbociclib] (partner 0.5 µM)"
  Result: 0.0651
- Molecule: "COc1cc2nccc(Oc3ccc(NC(=O)Nc4cc(C)on4)c(Cl)c3)c2cc1OC [Tivozanib] + C[C@@H](Oc1cc(-c2cnn(C3CCNCC3)c2)cnc1N)c1c(Cl)ccc(F)c1Cl [Crizotinib] (partner 1 µM)"
  Result: 0.885

---

test system: NCI-H2023; test: relative viability (nuclei count vs DMSO), 5 days (fraction); higher = more cells survive; details: first compound 8 µM
// NB: equality with 0.4 counts as n; only relative viability strictly below is y

- Compound: "O=c1[nH]c2ccccc2n1C1CCN(CCCC(c2ccc(F)cc2)c2ccc(F)cc2)CC1 [Pimozide] + N=C(N)NC(=N)NCCc1ccccc1 [Phenformin] (partner 250 µM)"
  Label class: "y"
- Compound: "O=c1[nH]c2ccccc2n1C1CCN(CCCC(c2ccc(F)cc2)c2ccc(F)cc2)CC1 [Pimozide] + COc1cc2c(Oc3ccc(NC(=O)C4(C(=O)Nc5ccc(F)cc5)CC4)cc3F)ccnc2cc1OCCCN1CCOCC1 [Foretinib] (partner 0.25 µM)"
  Label class: "n"
- Compound: "O=c1[nH]c2ccccc2n1C1CCN(CCCC(c2ccc(F)cc2)c2ccc(F)cc2)CC1 [Pimozide] + Cc1nc(Nc2ncc(C(=O)Nc3c(C)cccc3Cl)s2)cc(N2CCN(CCO)CC2)n1 [Dasatinib] (partner 0.075 µM)"
  Label class: "n"
- Compound: "O=c1[nH]c2ccccc2n1C1CCN(CCCC(c2ccc(F)cc2)c2ccc(F)cc2)CC1 [Pimozide] + O=C(CCCCCCC(=O)Nc1ccccc1)NO [Vorinostat] (partner 1 µM)"
  Label class: "n"
- Compound: "O=c1[nH]c2ccccc2n1C1CCN(CCCC(c2ccc(F)cc2)c2ccc(F)cc2)CC1 [Pimozide] + Nc1nc2[nH]cc(CCc3ccc(C(=O)N[C@@H](CCC(=O)O)C(=O)O)cc3)c2c(=O)[nH]1 [Pemetrexed] (partner 0.2 µM)"
  Label class: "y"
- Compound: "O=c1[nH]c2ccccc2n1C1CCN(CCCC(c2ccc(F)cc2)c2ccc(F)cc2)CC1 [Pimozide] + CCNC(=O)c1noc(-c2cc(C(C)C)c(O)cc2O)c1-c1ccc(CN2CCOCC2)cc1 [Luminespib] (partner 0.01 µM)"
  Label class: "n"
